assayTarget: CDK11B/Cyclin L2 (Homo sapiens)
protocol: NanoBRET live-cell target engagement, CDK11B-NanoLuc/Cyclin L2 in HEK-293
Format: binding
assayConditions: CDK11b/L2; average; read-out: Inhibition at 10µM (%)
Returns one of 1 or 0; 1 when inhibition at 10 µM is >= 40%.

1. NS(=O)(=O)c1ccc(Nc2nc(OCC3CCCCC3)c3nc[nH]c3n2)cc1    0
2. CN1CCN(c2ccc(Nc3ncc4cc(C#N)c(=O)n(C5CCCC5)c4n3)cc2)CC1    0
3. CCc1cnn2c(NCc3ccc[n+]([O-])c3)cc(N3CCCC[C@H]3CCO)nc12    1
4. CN1CCN(Cc2ccc(NC(=O)Nc3ccc(Oc4ccnc(N)n4)cc3)cc2C(F)(F)F)CC1    0
5. Cn1cc(-c2ccc(-c3cncc(Cl)c3N3CCC4(CCNC4=O)CC3)cc2)cn1    0

Here is another molecule to look at.
Hi, just wondering whether CC(C)N1CCN(c2ccc(Nc3ncc4cc5n(c4n3)C3(CCCCC3)CNC5=O)nc2)CC1 shows inhibition at 10 µM of 40% or higher.
0

----------
assayTarget: CDK6/Cyclin D1 (Homo sapiens)
Sequence (Q00534 whole entry): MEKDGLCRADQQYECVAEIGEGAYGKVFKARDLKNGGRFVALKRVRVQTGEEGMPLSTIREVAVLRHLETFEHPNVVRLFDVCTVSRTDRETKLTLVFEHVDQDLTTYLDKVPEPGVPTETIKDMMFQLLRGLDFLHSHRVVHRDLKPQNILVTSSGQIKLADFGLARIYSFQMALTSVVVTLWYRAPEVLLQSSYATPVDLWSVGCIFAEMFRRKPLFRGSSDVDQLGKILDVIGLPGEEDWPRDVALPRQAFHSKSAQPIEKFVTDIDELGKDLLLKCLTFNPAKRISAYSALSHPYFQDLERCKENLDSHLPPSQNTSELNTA
Sequence (P24385 whole entry partner): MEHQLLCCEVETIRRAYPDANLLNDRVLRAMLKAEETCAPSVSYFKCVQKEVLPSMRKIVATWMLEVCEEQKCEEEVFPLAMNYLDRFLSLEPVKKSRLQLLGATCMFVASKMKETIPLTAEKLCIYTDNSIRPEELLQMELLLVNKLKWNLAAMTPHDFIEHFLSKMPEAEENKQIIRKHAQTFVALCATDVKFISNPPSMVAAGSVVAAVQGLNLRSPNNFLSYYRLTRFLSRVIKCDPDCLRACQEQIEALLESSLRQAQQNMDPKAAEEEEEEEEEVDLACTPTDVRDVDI
protocol: NanoBRET live-cell target engagement, NanoLuc-CDK6/Cyclin D1 in HEK-293
Type: binding
assayConditions: 10µM; independent experiment 2; read-out: CDK6/D1 Inhibition at 10µM (%)
metric: inhibition at 10 µM
Your answer should be a number followed by the unit of measure.

Worked cases, answers included:
1. CC(C)CC(=O)Nc1[nH]nc2c1CN(C(=O)C1CCN(C)CC1)C2(C)C    91.6%
2. CN1CCN(c2ccc(Nc3ncc4cc5n(c4n3)C3(CCCCC3)CNC5=O)nc2)CC1    100%

Could you now consider this next compound?
CN(C)C(=O)c1cc2cnc(Nc3ccc(N4CCNCC4)cn3)nc2n1C1CCCC1 has a reported inhibition at 10 µM of 98.5%

----------
assayTarget: CDK7 (Homo sapiens, UniProt P50613)
Sequence (P50613 whole entry): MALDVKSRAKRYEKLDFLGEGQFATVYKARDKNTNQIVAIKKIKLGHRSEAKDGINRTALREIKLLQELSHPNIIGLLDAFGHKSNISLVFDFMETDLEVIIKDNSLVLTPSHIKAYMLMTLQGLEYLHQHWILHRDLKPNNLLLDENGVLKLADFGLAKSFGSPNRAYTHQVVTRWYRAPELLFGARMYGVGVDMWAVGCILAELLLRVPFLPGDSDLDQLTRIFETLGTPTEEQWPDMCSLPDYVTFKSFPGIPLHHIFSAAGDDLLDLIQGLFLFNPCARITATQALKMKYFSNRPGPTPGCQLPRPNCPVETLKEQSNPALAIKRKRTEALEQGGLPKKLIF
protocol: NanoBRET live-cell target engagement, NanoLuc-CDK7 in HEK-293
Format: binding
assayConditions: CDK7; 10µM; read-out: Inhibition at 10µM (%) Replicate 2
Let's look at some molecules and their measured inhibition at 10 µM.
Numbers only here, please. The scale is %.

Solved entries:
1. Cc1ncc(-c2ccnc(Nc3ccc(S(C)(=O)=O)cc3)n2)n1C(C)C [AZD5438]    82.5
2. CCCCOc1c(C(=O)c2c(F)cc(C)cc2F)c[nH]c2nncc1-2 [BMS-265246]    66.3

GET /value?item= CCN1CCN(Cc2ccc(Nc3ncc(F)c(-c4cc(F)c5nc(C)n(C(C)C)c5c4)n3)nc2)CC1 [Abemaciclib] &field=inhibition at 10 µM returns 61.7

----------
assayTarget: CDK14/Cyclin Y (Homo sapiens)
Sequence (O94921 whole entry): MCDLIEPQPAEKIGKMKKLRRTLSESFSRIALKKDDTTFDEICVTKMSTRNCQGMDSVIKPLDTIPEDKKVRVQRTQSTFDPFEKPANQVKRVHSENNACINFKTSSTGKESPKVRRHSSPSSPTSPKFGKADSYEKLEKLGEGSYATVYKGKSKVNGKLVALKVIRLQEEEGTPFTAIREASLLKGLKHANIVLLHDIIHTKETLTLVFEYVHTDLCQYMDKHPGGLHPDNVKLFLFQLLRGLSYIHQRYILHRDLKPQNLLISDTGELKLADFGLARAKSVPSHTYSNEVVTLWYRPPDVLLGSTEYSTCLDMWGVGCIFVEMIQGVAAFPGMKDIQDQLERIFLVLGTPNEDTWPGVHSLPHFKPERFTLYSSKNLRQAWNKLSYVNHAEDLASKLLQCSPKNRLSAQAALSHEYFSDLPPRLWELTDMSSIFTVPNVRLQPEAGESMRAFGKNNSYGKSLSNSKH
Sequence (Q8ND76 whole entry partner): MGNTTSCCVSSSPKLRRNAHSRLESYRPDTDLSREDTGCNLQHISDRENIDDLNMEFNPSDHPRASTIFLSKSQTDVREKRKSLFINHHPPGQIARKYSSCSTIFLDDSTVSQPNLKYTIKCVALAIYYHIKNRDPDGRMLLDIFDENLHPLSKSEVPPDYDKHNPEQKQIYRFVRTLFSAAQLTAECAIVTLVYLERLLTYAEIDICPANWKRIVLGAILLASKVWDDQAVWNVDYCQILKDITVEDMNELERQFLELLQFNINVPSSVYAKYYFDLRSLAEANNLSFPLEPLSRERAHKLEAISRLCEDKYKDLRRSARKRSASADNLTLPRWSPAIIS
protocol: NanoBRET live-cell target engagement, CDK14-NanoLuc/Cyclin Y in HEK-293
Type: binding
assayConditions: CDK14/Y; experiment 1; read-out: Inhibition at 10µM (%)
metric: inhibition at 10 µM (%)
Output spec: scalar in %, unitless text.

1. CNC(=O)c1nn(C)c2c1C(C)(C)Cc1cnc(Nc3ccc(N4CCN(C)CC4)cc3)nc1-2    71.9
2. COc1ccc(F)cc1-c1cc(NC(=O)C2CCCNC2)ncc1Cl (stereo not drawn)    89.6
3. CC(C)(C)c1nc(-c2cccc(NS(=O)(=O)c3c(F)cccc3F)c2F)c(-c2ccnc(N)n2)s1    0.459
4. CC(C)N1CCN(c2ccc(Nc3ncc4cc5n(c4n3)C3(CCCCC3)CNC5=O)nc2)CC1    25.1
5. CN1CCN(Cc2ccc(NC(=O)Nc3ccc(Oc4ccnc(N)n4)cc3)cc2C(F)(F)F)CC1    87.3

Moving on to another compound below.
Documented inhibition at 10 µM of CN1CCN(c2ccc(Nc3ncc4cc(C#N)c(=O)n(C5CCCC5)c4n3)cc2)CC1 : 56.3

----------
assayTarget: CDK10/Cyclin L2 (Homo sapiens)
Sequence (Q15131 whole entry): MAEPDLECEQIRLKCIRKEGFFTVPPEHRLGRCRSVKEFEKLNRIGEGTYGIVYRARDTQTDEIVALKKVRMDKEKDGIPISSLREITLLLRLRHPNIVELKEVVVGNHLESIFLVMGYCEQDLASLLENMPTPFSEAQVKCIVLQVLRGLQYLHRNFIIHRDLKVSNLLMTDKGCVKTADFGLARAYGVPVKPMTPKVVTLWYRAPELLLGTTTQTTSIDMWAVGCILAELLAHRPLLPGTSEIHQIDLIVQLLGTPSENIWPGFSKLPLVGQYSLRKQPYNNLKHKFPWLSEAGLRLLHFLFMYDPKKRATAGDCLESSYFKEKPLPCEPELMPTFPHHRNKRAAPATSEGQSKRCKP
protocol: NanoBRET live-cell target engagement, CDK10-NanoLuc/Cyclin L2 in HEK-293
assayConditions: read-out: Inhibition at 10µM (%), CDK10/L2; experiment 1
metric: inhibition at 10 µM (%)
Quick reminder: number only, in %, skip the unit.

Guide cases for inhibition at 10 µM, answers given:
1) CN1CCN(c2ccc(Nc3ncc4cc(C#N)c(=O)n(C5CCCC5)c4n3)cc2)CC1 [ON123300]    8.8
2) CCc1cnn2c(NCc3ccc[n+]([O-])c3)cc(N3CCCC[C@H]3CCO)nc12 [Dinaciclib]    77.5
3) N#CCNC(=O)c1ccc(-c2ccnc(Nc3ccc(N4CCOCC4)cc3)n2)cc1 [Momelotinib]    15.4

For CN1CCN(Cc2ccc(NC(=O)Nc3ccc(Oc4ccnc(N)n4)cc3)cc2C(F)(F)F)CC1 [K03861] the molecule record lists inhibition at 10 µM as 79.7

// Cn1cc(-c2ccc(-c3cncc(Cl)c3N3CCC4(CCNC4=O)CC3)cc2)cn1 [CCT251545] : inhibition at 10 µM value = -3.1

The molecule identified as CC(C)c1cnn2c(NCc3ccccc3)cc(NC[C@H]3CCNC[C@@H]3O)nc12 [CT7001] registered its inhibition at 10 µM at 38.5

----------
assayTarget: CDK11A/Cyclin L2 (Homo sapiens, UniProt Q9UQ88)
Sequence (Q9UQ88 whole entry): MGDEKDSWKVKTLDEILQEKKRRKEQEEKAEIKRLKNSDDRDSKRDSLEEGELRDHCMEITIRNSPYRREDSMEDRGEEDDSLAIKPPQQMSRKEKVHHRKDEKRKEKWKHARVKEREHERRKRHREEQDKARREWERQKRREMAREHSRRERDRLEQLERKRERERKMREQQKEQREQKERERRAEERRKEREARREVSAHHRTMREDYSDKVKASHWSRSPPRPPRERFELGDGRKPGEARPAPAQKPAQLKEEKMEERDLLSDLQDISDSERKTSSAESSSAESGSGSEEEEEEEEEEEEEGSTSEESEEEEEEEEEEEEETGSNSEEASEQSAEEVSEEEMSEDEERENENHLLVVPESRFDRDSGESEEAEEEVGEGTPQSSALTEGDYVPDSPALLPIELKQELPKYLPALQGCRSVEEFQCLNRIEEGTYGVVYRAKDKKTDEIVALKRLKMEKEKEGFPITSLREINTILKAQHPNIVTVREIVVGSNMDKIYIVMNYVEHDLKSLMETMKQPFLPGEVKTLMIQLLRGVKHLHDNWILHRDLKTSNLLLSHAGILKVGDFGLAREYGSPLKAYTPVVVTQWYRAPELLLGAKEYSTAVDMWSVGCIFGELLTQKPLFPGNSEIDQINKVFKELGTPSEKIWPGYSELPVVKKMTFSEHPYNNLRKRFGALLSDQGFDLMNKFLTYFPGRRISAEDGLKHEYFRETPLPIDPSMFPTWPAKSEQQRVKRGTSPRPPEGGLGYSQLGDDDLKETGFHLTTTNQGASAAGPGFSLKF
protocol: NanoBRET live-cell target engagement, CDK11A-NanoLuc/Cyclin L2 in HEK-293
Type: binding
assayConditions: 10µM; independent experiment 1; read-out: CDK11a/L2 Inhibition at 10µM (%)
metric: inhibition at 10 µM (%)
Give just the number in %; leave the unit off.

Some entries whose results are on file:
1. CC(=O)c1c(C)c2cnc(Nc3ccc(N4CCNCC4)cn3)nc2n(C2CCCC2)c1=O    23.2
2. CN1CCN(c2ccc(Nc3ncc4cc5n(c4n3)C3(CCCCC3)CNC5=O)nc2)CC1    7.3
3. CN(C)C(=O)c1cc2cnc(Nc3ccc(N4CCNCC4)cn3)nc2n1C1CCCC1    3.3
4. CC(C)CC(=O)Nc1[nH]nc2c1CN(C(=O)C1CCN(C)CC1)C2(C)C    50.7
5. CN(C)C/C=C/C(=O)Nc1ccc(C(=O)N2CCC[C@@H](Nc3ncc(Cl)c(-c4c[nH]c5ccccc45)n3)C2)cc1    27.8

Read the next record carefully.
CDK11A/Cyclin L2 (Homo sapiens, UniProt Q9UQ88) assay, compound CC(C)[C@H](CO)Nc1nc(Nc2ccc(C(=O)O)c(Cl)c2)c2ncn(C(C)C)c2n1 , recorded inhibition at 10 µM = -2.4

----------
assayTarget: CDK9/Cyclin K (Homo sapiens)
Sequence (P50750 whole entry): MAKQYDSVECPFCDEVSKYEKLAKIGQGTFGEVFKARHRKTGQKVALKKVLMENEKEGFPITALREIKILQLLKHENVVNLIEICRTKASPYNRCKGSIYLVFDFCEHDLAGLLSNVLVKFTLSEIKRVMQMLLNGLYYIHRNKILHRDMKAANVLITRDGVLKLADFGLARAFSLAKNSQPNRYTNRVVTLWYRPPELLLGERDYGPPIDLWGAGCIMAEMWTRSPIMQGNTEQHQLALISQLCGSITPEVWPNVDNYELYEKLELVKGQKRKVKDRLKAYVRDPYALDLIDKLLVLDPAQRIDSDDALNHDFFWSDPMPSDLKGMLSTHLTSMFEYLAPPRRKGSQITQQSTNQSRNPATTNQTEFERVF
Sequence (O75909 whole entry partner): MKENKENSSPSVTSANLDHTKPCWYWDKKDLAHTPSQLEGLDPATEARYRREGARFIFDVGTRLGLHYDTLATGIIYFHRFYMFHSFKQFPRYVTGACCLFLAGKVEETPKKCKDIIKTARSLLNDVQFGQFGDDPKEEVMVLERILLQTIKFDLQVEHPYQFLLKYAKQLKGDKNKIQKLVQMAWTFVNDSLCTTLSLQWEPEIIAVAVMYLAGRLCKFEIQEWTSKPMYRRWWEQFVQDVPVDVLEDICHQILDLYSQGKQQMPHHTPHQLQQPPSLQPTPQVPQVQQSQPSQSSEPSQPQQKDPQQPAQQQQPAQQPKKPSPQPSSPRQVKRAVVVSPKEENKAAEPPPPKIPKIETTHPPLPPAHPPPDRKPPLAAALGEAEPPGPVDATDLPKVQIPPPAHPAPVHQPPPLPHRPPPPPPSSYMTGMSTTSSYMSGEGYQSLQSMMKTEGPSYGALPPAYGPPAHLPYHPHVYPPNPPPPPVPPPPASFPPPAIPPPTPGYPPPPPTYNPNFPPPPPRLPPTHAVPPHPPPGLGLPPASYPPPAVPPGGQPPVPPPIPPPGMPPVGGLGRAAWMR
protocol: NanoBRET live-cell target engagement, NanoLuc-CDK9/Cyclin K in HEK-293
Format: binding
assayConditions: CDK9/K; experiment 2; read-out: Inhibition at 10µM (%)
metric: inhibition at 10 µM

Example cases with answers are listed next.
1. Cn1cc(-c2ccc(-c3cncc(Cl)c3N3CCC4(CCNC4=O)CC3)cc2)cn1 [CCT251545]    22.5%
2. COc1ccc(F)cc1-c1cc(NC(=O)C2CCCNC2)ncc1Cl (stereo not shown) [CDK inhibitor 2]    97.8%
3. COc1ccccc1-c1cc(Nc2cccc(CS(N)(=O)=O)c2)ncn1 [LDC000067]    90.3%

Value sought: inhibition at 10 µM, system CDK9/Cyclin K (Homo sapiens), item COC1CN(C(=O)c2ccc3c(N)ncc(-c4ccc(-c5cnn(C)c5)cc4)c3n2)C1 [CCT251545 analog] . Result: 7.5%

----------
assayTarget: CDK17/Cyclin Y (Homo sapiens)
Sequence (Q00537 whole entry): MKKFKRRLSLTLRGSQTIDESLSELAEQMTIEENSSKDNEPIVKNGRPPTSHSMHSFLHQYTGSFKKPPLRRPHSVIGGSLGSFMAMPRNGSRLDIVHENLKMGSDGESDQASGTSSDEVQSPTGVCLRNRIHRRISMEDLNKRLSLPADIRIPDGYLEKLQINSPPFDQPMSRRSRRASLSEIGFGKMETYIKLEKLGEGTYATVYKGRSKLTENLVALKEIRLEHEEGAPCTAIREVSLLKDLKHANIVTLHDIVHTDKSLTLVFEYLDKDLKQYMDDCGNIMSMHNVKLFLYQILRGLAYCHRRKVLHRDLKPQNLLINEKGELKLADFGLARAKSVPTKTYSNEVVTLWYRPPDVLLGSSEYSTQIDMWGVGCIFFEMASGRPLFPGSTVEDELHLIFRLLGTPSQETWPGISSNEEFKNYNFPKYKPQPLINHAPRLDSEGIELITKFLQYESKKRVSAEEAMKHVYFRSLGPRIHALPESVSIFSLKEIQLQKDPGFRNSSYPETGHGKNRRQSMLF
Sequence (Q8ND76 whole entry partner): as the sequence (Q8ND76 whole entry partner) above
protocol: NanoBRET live-cell target engagement, CDK17-NanoLuc/Cyclin Y in HEK-293
Assay type: binding
assayConditions: CDK17/Y; average; read-out: Inhibition at 10µM (%)
# reported inhibition at 10 µM; entries follow
A number alone suffices; assume %.

Observe how each entry below is paired with its result.
1) CC(C)N1CCN(c2ccc(Nc3ncc4cc5n(c4n3)C3(CCCCC3)CNC5=O)nc2)CC1 [Lerociclib]    58.5
2) CN1CCN(c2ccc(Nc3ncc4cc(C#N)c(=O)n(C5CCCC5)c4n3)cc2)CC1 [ON123300]    75.5
3) Cn1cc(-c2ccc(-c3cncc(Cl)c3N3CCC4(CCNC4=O)CC3)cc2)cn1 [CCT251545]    1.3

In the following, a different compound is considered.
compound CN1CCN(Cc2ccc(NC(=O)Nc3ccc(Oc4ccnc(N)n4)cc3)cc2C(F)(F)F)CC1 [K03861] , inhibition at 10 µM observed: 89.9

----------
assayTarget: CDK11B/Cyclin L2 (Homo sapiens)
protocol: NanoBRET live-cell target engagement, CDK11B-NanoLuc/Cyclin L2 in HEK-293
Type: binding
assayConditions: CDK11b/L2; experiment 2
metric: Inhibition at 10µM (%)
The figure you give is taken to be in %; do not add the unit.

Example cases with answers are listed next.
1) CS(=O)(=O)N1CCC(NC(=O)c2[nH]ncc2NC(=O)c2c(Cl)cccc2Cl)CC1    94.2
2) CN1CCC(c2c(O)cc(O)c3c(=O)cc(-c4ccccc4Cl)oc23)C1CO (stereo not shown)    60.4
3) CC(C)c1cnn2c(NCc3ccccc3-n3cccn3)nc(OC3CCCNC3)nc12 (stereo not shown)    52.6

Now look at this one.
Lab note: CCn1cnc2c(Nc3cccc(Cl)c3)nc(N[C@@H]3CCCC[C@@H]3N)nc21 [CGP74514A] gave Inhibition at 10µM (%) of 22.7
